Target: rat spleen 20S immunoproteasome (Rattus norvegicus, UniProt P28064+P28077)
Construct: rat spleen 20S immunoproteasome (Boston Biochem, 0.25 nM final)
Experiment: Rat 20S (PA28 activation) β1i and β5i Proteasome Assays (result stated for one or both)
Conditions: human PA28 activator, Ac-PAL-AMC (β1i) or Ac-ANW-AMC (β5i) substrate, not stated which of the two assays
pIC50: −log10 of the molar value.
measure: pIC50

So what pIC50 did Cc1ccc(C[C@H](NC(=O)C2(NC(=O)c3cnccn3)CC2)B(O)O)cc1 get with rat spleen 20S immunoproteasome (Rattus norvegicus, UniProt P28064+P28077)?
≥ 5.00

Would you kindly repeat that for CC(C)C[C@H](NC(=O)C(C)(C)NC(=O)c1ccc(Cl)cc1)B(O)O ?
≥ 6.00

Would you kindly repeat that for CC(C)C[C@H](NC(=O)C1(NC(=O)OCc2ccccc2)CCC1)B(O)O ?
≥ 6.00

Would you kindly repeat that for CC(C)C[C@H](NC(=O)C(C)(C)NC(=O)OCc1ccccc1)B(O)O ?
≥ 6.00

Would you kindly repeat that for CC(C)C[C@H](NC(=O)C1(NC(=O)Cc2ccccc2)CC1)B(O)O ?
≥ 6.00

Would you kindly repeat that for CC(C)C[C@H](NC(=O)C(C)(C)NC(=O)c1cnc2ccccc2n1)B(O)O ?
≥ 6.00

Would you kindly repeat that for CC(C)C[C@H](NC(=O)[C@]1(NC(=O)c2cnccn2)C[C@H]1c1ccccc1)B(O)O ?
≥ 6.00

Would you kindly repeat that for CC(C)C[C@H](NC(=O)C(C)(C)NC(=O)c1cnccn1)B(O)O ?
≥ 6.00

Would you kindly repeat that for CC(C)C[C@H](NC(=O)C1(NC(=O)c2ccccc2C(F)(F)F)CC1)B(O)O ?
≥ 6.00

Would you kindly repeat that for Cc1cccc(C[C@H](NC(=O)C2(NC(=O)c3ccc(Cl)cc3)CC2)B(O)O)c1 ?
≥ 5.00

The origin of these recorded values is patent EP2212334B1.
